src = patent US20200199213A1

The reader will find reported OD at 560 nm values listed item by item below.
- measured.on: T1, human ANGPTL3/8 complex (human, UniProt Q9Y5C1 17-460; Q6UXH0 22-198, limits assumed)
- T1 construct: also called hANGPTL3/8 complex; ANGTPL3/8 complex
- T1 sequence 1: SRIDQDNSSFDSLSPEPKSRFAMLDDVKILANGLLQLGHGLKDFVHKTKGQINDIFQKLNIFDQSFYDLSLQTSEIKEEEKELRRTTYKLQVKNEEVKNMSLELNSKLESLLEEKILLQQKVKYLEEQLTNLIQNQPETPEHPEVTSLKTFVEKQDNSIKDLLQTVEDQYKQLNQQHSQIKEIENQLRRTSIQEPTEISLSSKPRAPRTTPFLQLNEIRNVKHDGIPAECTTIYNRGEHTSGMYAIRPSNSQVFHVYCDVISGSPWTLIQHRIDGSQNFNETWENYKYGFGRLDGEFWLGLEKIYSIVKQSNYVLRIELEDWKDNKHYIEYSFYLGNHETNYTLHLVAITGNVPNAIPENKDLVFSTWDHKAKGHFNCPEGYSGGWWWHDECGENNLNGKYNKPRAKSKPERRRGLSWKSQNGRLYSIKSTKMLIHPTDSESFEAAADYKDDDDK
- T1 sequence 2: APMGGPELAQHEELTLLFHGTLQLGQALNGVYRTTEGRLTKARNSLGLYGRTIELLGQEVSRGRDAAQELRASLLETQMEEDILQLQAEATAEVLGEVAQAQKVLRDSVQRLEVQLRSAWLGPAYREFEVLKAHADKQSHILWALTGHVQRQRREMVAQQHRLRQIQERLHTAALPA
- test: ELISA; Ab captured by anti-human Fc; biotinylated antigen at 0.137 nM

>  <binder>
anti-ANGPTL3/8 complex Ab having a LC of SEQ ID NO:5 and a HC of SEQ ID NO:6 (antibody, human IgG4 S228P, kappa, F234A L235A, V domains shown, In the ELISA assays tested as IgG from CHO supernatants; also called the Ab) VH: QVTLKESGPTLVKPTQTLTLTCTFSGFSLSISGVGVGWIRQPPGKALEWLALIYRNDDKRYSPSLKSRLTITKDTSKNQVVLTLTNMDPVDTATYYCARTYSSGWYGNWFDPWGQGTLVTVSS VL: DIVMTQTPLSLPVTPGEPASISCRSSQSLLDSDDGNTYLDWYLQKPGQSPQLLIYMLSYRASGVPDRFSGSGSGTDFTLKISRVEAEDVGIYYCMQRIEFPLTFGGGTKVEIKR

>  <OD at 560 nm [OD 560 nm]>
0.11

$$$$
>  <binder>
Ab with LC variant having a D33A mutation (SEQ ID NO:22) and a HC of SEQ ID NO:6 (antibody, human IgG4 S228P, kappa, F234A L235A, V domains shown, also called D33A Variant Ab; D33A Ab) VH: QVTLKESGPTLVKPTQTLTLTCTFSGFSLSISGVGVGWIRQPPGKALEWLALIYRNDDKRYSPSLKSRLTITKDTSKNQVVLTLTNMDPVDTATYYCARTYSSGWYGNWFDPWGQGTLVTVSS VL: DIVMTQTPLSLPVTPGEPASISCRSSQSLLDSADGNTYLDWYLQKPGQSPQLLIYMLSYRASGVPDRFSGSGSGTDFTLKISRVEAEDVGIYYCMQRIEFPLTFGGGTKVEIKR

>  <OD at 560 nm [OD 560 nm]>
0.101

$$$$
>  <binder>
Ab with LC variant having a E99Q mutation (SEQ ID NO:25) and a HC of SEQ ID NO:6 (antibody, human IgG4 S228P, kappa, F234A L235A, V domains shown, also called E99Q Variant Ab; E99Q Ab) VH: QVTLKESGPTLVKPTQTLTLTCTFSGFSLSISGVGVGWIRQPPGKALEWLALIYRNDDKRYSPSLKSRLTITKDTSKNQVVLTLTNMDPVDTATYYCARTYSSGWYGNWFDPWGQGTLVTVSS VL: DIVMTQTPLSLPVTPGEPASISCRSSQSLLDSDDGNTYLDWYLQKPGQSPQLLIYMLSYRASGVPDRFSGSGSGTDFTLKISRVEAEDVGIYYCMQRIQFPLTFGGGTKVEIKR

>  <OD at 560 nm [OD 560 nm]>
0.137

$$$$
>  <binder>
Ab with LC variant having a D31S mutation (SEQ ID NO:21) and a HC of SEQ ID NO:6 (antibody, human IgG4 S228P, kappa, F234A L235A, V domains shown, also called D31S Variant Ab; D31S Ab) VH: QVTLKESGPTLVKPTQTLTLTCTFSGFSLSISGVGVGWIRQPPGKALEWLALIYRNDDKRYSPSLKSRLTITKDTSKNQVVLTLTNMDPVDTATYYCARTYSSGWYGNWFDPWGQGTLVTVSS VL: DIVMTQTPLSLPVTPGEPASISCRSSQSLLSSDDGNTYLDWYLQKPGQSPQLLIYMLSYRASGVPDRFSGSGSGTDFTLKISRVEAEDVGIYYCMQRIEFPLTFGGGTKVEIKR

>  <OD at 560 nm [OD 560 nm]>
0.137

$$$$
